# experimentalTarget: chimeric human H3 receptor (Homo sapiens, UniProt Q9Y5N1, E19D)
# Construct: made in house; host or cells: Sf9 insect cells (baculovirus infection); P2 membrane preparation
# Sequence (Q9Y5N1 with tags, fused parts or gaps E19D): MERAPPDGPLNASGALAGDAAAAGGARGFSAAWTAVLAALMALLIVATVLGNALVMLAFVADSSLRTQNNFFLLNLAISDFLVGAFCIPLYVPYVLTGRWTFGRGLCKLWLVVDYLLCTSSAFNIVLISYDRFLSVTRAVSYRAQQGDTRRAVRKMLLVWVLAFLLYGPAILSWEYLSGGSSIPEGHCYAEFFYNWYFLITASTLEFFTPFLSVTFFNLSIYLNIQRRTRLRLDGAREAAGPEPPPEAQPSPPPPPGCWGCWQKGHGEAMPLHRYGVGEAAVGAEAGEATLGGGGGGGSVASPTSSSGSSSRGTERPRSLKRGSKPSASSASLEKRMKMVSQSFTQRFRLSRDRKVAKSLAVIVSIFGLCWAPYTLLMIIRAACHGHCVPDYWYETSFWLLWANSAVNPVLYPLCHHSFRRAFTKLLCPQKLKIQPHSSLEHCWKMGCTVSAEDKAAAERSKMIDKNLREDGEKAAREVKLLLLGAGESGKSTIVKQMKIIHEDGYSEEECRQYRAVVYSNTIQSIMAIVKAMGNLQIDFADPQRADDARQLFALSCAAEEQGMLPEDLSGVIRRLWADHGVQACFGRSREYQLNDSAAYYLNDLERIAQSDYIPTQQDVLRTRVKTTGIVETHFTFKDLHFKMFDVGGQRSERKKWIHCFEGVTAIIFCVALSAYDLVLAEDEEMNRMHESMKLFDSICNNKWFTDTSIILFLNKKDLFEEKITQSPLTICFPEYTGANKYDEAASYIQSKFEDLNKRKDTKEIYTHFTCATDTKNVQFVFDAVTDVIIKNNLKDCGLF
# experimentalDetails: Chimeric human H3 receptor GTP binding assay (agonist-stimulated GTP-gamma35S binding, Example 7)
# Assay type: biochemical
# conditionContext: assay of Example 7; "*" in Ki of Table II; read-out: Ki
pKi: −log10 of the molar value.
Consider the following compounds and their measured pKi readings.
endpointLabel: pKi

[[record]]
compound = "CC(C)(C)CC(=O)NC1CCN(CC(=O)N2CCN(C3CCC3)CC2)C1 (centres unmarked)"
measuredvalue = "> 6.00"

[[record]]
compound = "O=C1CCCc2cc(N3CCN(CC(=O)N4CCN(C5CCC5)CC4)CC3)ccc21"
measuredvalue = "> 6.00"

[[record]]
compound = "CCCC(C)NC(=O)c1ccc(N2CCN(CC(=O)N3CCN(C4CCC4)CC3)CC2)cc1 (centres unmarked)"
measuredvalue = "> 6.00"

[[record]]
compound = "O=C(NC1CCCC1)c1ccc(N2CCN(CC(=O)N3CCN(C4CCC4)CC3)CC2)nc1"
measuredvalue = "> 6.00"

[[record]]
compound = "CCC(CC)CNC(=O)c1ccc(N2CCN(CC(=O)N3CCN(C4CCC4)CC3)CC2)nc1"
measuredvalue = "> 6.00"

[[record]]
compound = "CCCCC(=O)NC1CCN(CC(=O)N2CCN(C3CCC3)CC2)C1 (centres unmarked)"
measuredvalue = "> 6.00"

[[record]]
compound = "CC(C)CCC(=O)NC1CCN(CC(=O)N2CCN(C3CCC3)CC2)C1 (centres unmarked)"
measuredvalue = "> 6.00"

[[record]]
compound = "O=C(CN1CCC2(CC1)C(=O)NCN2c1ccccc1)N1CCN(C2CCC2)CC1"
measuredvalue = "> 6.00"

[[record]]
compound = "O=C(CC1CCCC1)NC1CCN(CC(=O)N2CCN(C3CCC3)CC2)CC1"
measuredvalue = "> 6.00"

[[record]]
compound = "CCC(C)CNC(=O)c1ccc(N2CCN(CC(=O)N3CCN(C4CCC4)CC3)CC2)nc1 (centres unmarked)"
measuredvalue = "> 6.00"

[[record]]
compound = "CCOC(=O)c1cccc(-c2ccc(N3CCN(CC(=O)N4CCN(C5CCC5)CC4)CC3)cc2)c1"
measuredvalue = "> 6.00"

[[record]]
compound = "O=C1CCc2cc(N3CCN(CC(=O)N4CCN(C5CCCC5)CC4)CC3)ccc21"
measuredvalue = "> 6.00"

[[record]]
compound = "CCCCCNC(=O)c1ccc(N2CCN(CC(=O)N3CCN(C4CCC4)CC3)CC2)nc1"
measuredvalue = "> 6.00"

[[record]]
compound = "O=C(NC1CCCCC1)c1ccc(N2CCN(CC(=O)N3CCN(C4CCC4)CC3)CC2)cc1"
measuredvalue = "> 6.00"

[[record]]
compound = "O=C(NC1CCN(CC(=O)N2CCN(C3CCC3)CC2)CC1)c1ccccc1"
measuredvalue = "> 6.00"

[[record]]
compound = "CCCCNC(=O)c1ccc(N2CCN(CC(=O)N3CCN(C4CCC4)CC3)CC2)cc1"
measuredvalue = "> 6.00"

[[record]]
compound = "CCCc1ccc(C(=O)NC2CCN(CC(=O)N3CCN(C4CCC4)CC3)C2)cc1 (centres unmarked)"
measuredvalue = "> 6.00"


Where do the numbers come from? From patent US7851474B2.
